# system name: T1, human LIV-1 (human, UniProt Q13433 29-755)
# T1 sequence (looked up): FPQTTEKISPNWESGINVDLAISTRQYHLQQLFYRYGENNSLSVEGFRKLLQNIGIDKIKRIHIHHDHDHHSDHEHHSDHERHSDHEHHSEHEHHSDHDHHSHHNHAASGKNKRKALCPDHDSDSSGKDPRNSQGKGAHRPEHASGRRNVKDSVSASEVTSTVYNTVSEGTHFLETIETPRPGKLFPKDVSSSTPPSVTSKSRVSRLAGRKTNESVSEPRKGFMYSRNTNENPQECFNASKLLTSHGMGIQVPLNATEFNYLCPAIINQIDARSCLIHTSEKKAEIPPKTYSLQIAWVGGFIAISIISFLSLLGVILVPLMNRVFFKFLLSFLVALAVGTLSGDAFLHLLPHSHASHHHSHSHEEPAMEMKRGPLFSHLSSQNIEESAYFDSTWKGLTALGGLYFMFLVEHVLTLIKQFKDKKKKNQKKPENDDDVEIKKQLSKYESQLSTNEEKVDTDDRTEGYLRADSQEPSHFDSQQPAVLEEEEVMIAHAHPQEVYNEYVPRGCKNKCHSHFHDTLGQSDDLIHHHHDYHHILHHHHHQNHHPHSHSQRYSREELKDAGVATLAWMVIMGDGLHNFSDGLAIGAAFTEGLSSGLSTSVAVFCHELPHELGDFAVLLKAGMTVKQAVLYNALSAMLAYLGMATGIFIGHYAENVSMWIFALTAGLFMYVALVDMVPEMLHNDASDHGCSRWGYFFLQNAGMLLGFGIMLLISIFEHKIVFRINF
# assay explanation: cell-based or functional assay
Provide the recorded Cytotoxicity IC50 for the entries that follow.
Number only, in nM; omit the unit.

# lookup: Cytotoxicity IC50 of 293F10B6 (antibody, V domains shown, Tested as chimeric antibody) VH: QVTLKESGPGMLQPSQTLNLTCSFSGFSLNTSGMGVSWIRQPSGKGLEWLAHIFWDDDKRYNPSLKSRLTISKDVSSNQVFLKITSVDTADTATYFCARRARNNYPWFPYWGQGTLVTVSA VL: DIVLTQSPASLAVSLGQRATISCKASQSVDYDGDSYMNWYQQKPGQPPKLLIYAASNLDSGIPARFSGSGSGTDFTLNIHPMEDEDVATYYCQQSNGAPFTFGGGTKLEIK 1.46

What does the data say about its Cytotoxicity IC50? Entry: 282G5A2 (antibody, V domains shown, Tested as chimeric antibody) VH: QVQLQQSGAELVRPGTSVKVSCKASGYALTKYLIEWIKQRPGQGLEWIGVINPGNAGNNYNEKFKGKATLTVDQSSSTAYMQLSSLTSEDSAVYFCARRGRDYAMDNWGQGTSVTVSS VL: EIVLTQSPAIMSASLGEKVTMSCRASSSINYIYWYQQKSDASPKLWIYYTSNLAPGVPARFSGSGSGNSYSLTISSMEDEDAATYYCQQFTSSPLTFGAGTKLELK 12.1
